Assayed Target: UniProtKB Q96GD4
Protocol Description: Aurora-1 (Aurora B) inhibition assay (radiometric)
Type: biochemical
Condition Summary: read-out: Aurora B kinase Ki value
Measured Metric: Ki

For the molecule Cc1cc(Nc2cc(N3CC(C#N)C3)nc(Sc3ccc(NC(=O)c4ccccc4Cl)cc3)n2)n[nH]1 , give its measured Ki value. ≤ 10 nM

Hello, I would appreciate it if you could give Ki for each entry below.
1. Cc1cc(Nc2cc(N3CC(OC(=O)CN(C)C)(C4CC4)C3)nc(Sc3ccc(NC(=O)C4CC4)cc3)n2)n[nH]1
2. Cc1cc(Nc2cc(N3CC(OC(C)(C)C)C3)nc(Sc3ccc(NC(=O)c4ccccc4Cl)cc3)n2)[nH]n1
3. Cc1cc(Nc2cc(N3CC4(CCCO4)C3)nc(Sc3ccc(NC(=O)C4CC4)cc3)n2)[nH]n1
4. Cc1cc(Nc2cc(N3CCC3)nc(Sc3ccc(C(=O)NCc4ccccc4Cl)cc3)n2)n[nH]1
5. Cc1cc(Nc2cc(N3CC(N4CCOCC4)C3)nc(Sc3ccc4nc(C(F)(F)F)n(C)c4c3)n2)[nH]n1
6. CC1=NN=C(Nc2cc(N3CCC3)nc(Sc3ccc(NC(=O)c4cccc(C(F)(F)F)c4F)cc3)n2)C1

1: ≤ 10 nM; 2: ≤ 10 nM; 3: ≤ 10 nM; 4: 50 to 2000 nM; 5: ≤ 10 nM; 6: ≤ 10 nM

###

Exercise: for every item that follows, state its recorded Ki.
Assayed Target: Aurora-2 (Aurora A) (Homo sapiens)
Sequence (O14965 whole entry): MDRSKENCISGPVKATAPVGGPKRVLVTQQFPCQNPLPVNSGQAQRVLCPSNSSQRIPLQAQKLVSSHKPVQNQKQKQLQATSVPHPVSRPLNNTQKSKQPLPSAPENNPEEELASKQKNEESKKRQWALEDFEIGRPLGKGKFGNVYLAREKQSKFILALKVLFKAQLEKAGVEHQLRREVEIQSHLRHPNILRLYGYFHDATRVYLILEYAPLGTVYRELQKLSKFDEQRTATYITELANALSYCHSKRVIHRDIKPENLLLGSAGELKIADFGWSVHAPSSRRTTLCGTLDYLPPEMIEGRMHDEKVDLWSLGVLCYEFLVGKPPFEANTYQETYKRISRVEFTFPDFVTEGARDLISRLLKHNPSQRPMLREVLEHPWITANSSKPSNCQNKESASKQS
Protocol Description: Aurora-2 (Aurora A) inhibition assay, coupled enzyme
Type: biochemical
Condition Summary: read-out: Aurora A kinase Ki value

Quick request: Ki for each listed item, please.
1. Cc1cc(Nc2cc(N3CCC3)nc(Sc3ccc4ccccc4c3)n2)n[nH]1 [Compound 25]
2. CCC(=O)Nc1ccc(Sc2nc(Nc3cc(C)n[nH]3)cc(N3CC(O)(C(C)(C)C)C3)n2)cc1 [Compound 81]
3. Cc1cc(Nc2cc(N3CC(F)C3)nc(Sc3ccc(NC(=O)c4ccccc4Cl)cc3)n2)[nH]n1 [Compound 60]
4. Cc1cc(Nc2cc(N3CCC3)nc(Sc3ccc(NC(=O)NCc4ccccc4)cc3)n2)n[nH]1 [Compound 74]
5. Cc1cc(Nc2cc(N3CC(O)(C4CC4)C3)nc(Oc3ccc4nc(C)sc4c3)n2)[nH]n1 [Compound 180]
6. Cc1cc(Nc2cc(N3CC(F)(C4CC4)C3)nc(Sc3ccc(-c4ncc(C)o4)cc3)n2)[nH]n1 [Compound 175]

["1 to 5 nM", "≤ 1 nM", "1 to 5 nM", "5 to 200 nM", "≤ 1 nM", "5 to 200 nM"]

Let me know recorded Ki for Cc1cc(Nc2cc(N3CC(F)(C4CC4)C3)nc(Sc3ccc4c(c3)N(C)C(C(F)(F)F)N4)n2)[nH]n1 (stereo not shown) [Compound 156] , thanks. ≤ 1 nM

###

Give measured IC50 for each item. Keep answers brief.
Test system: Colo205 cells
Protocol Description: Analysis of cell proliferation and viability
Format: cell-based
Condition Summary: Homo sapiens, COLO 205, 96 h, read-out: IC50 value
Procedure: Colo205 cells were seeded in 96 well plates and serially diluted compound was added to the wells in duplicate. Control groups included untreated cells, the compound diluent (0.1% DMSO alone) and culture medium without cells. To measure proliferation, 3 h prior to the end of the experiment 0.5 μCi of 3H thymidine was added to each well. Cells were then harvested and the incorporated radioactivity counted on a Wallac microplate beta-counter. […]

Give reported IC50 value for CCC(=O)Nc1ccc(Sc2nc(Nc3cc(C)n[nH]3)cc(N3CC(O)(C4CCCC4)C3)n2)cc1 > 1000 nM

# return recorded IC50 for input CCC(=O)Nc1ccc(Sc2nc(Nc3cc(C4CC4)[nH]n3)cc(N3CC(O)(C4CC4)C3)n2)cc1 ≤ 50 nM

Look up IC50 of Cc1cc(Nc2cc(N3CCC3)nc(Sc3ccc(NC(=O)c4c(Cl)cccc4Cl)cc3)n2)n[nH]1 and report it. 50 to 1000 nM

Each compound below has a reported value. Please supply its IC50.
1. Cc1cc(Nc2cc(N3CC(F)(C4CC4)C3)nc(Sc3ccc(NC(=O)C4CC4)cc3)n2)n[nH]1
2. Cc1cc(Nc2cc(N3CC(F)(C4CC4)C3)nc(Sc3ccc(NC(=O)CC(F)(F)F)cc3)n2)[nH]n1
3. Cc1cc(Nc2cc(N3CCC3)nc(Sc3ccc(NC(=O)c4ccccc4OC(F)(F)F)cc3)n2)n[nH]1
4. COc1ccccc1C(=O)Nc1ccc(Sc2nc(Nc3cc(C)[nH]n3)cc(N3CCC3)n2)cc1

1. ≤ 50 nM
2. ≤ 50 nM
3. 50 to 1000 nM
4. 50 to 1000 nM

###

Target protein (sequence): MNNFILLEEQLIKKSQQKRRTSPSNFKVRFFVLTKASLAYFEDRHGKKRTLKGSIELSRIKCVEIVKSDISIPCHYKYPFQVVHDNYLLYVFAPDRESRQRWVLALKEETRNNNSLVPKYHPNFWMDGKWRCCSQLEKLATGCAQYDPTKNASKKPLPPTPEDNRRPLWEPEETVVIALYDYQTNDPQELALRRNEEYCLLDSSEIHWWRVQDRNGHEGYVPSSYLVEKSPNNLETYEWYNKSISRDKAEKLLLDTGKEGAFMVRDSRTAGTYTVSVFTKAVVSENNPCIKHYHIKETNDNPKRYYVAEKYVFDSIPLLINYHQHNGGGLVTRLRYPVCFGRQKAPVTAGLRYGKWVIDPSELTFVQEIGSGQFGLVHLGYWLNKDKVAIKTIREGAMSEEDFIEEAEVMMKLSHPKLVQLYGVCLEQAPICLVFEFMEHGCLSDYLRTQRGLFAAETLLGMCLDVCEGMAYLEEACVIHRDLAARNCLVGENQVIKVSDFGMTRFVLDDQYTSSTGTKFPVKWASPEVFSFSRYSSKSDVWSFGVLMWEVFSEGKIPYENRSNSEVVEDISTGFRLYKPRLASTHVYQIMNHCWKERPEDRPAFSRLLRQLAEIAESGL
Measured Metric: Ki

Tell me Ki reported for COc1ccccc1C(=O)Nc1ccc(Sc2nc(Nc3cc(C)[nH]n3)cc(N3CCC3)n2)cc1 [Compound 32] 100 to 1000 nM

State the recorded Ki for every item in the following list.
1. Cc1cc(Nc2cc(N3CC(F)C3)nc(Sc3ccc(NC(=O)c4ccccc4Cl)cc3)n2)[nH]n1 [Compound 60]
2. CC1=NN=C(Nc2cc(N3CCC3)nc(Sc3ccc(NC(=O)c4cccc(Cl)c4F)cc3)n2)C1 [Compound 61]

≤ 100 nM
≤ 100 nM

Provide Ki values for the following items, in order.
1. Cc1cc(Nc2cc(N3CCC3)nc(Sc3ccc(NC(=O)c4cc(Cl)ccc4Cl)cc3)n2)n[nH]1 [Compound 163]
2. Cc1cc(Nc2cc(N3CCC3)nc(Sc3ccc(NC(=O)c4ccc(F)cc4F)cc3)n2)n[nH]1 [Compound 44]
3. Cc1ccc(C(=O)Nc2ccc(Sc3nc(Nc4cc(C)[nH]n4)cc(N4CCC4)n3)cc2)cc1 [Compound 28]
4. CCC(=O)Nc1ccc(Sc2nc(Nc3cc(C)n[nH]3)cc(N3CC(O)(C(C)(C)C)C3)n2)cc1 [Compound 81]

["100 to 1000 nM", "100 to 1000 nM", "100 to 1000 nM", "≤ 100 nM"]

###

Assayed Target: Aurora-1 (Aurora B) (Homo sapiens, UniProt Q96GD4)
Sequence (Q96GD4 whole entry): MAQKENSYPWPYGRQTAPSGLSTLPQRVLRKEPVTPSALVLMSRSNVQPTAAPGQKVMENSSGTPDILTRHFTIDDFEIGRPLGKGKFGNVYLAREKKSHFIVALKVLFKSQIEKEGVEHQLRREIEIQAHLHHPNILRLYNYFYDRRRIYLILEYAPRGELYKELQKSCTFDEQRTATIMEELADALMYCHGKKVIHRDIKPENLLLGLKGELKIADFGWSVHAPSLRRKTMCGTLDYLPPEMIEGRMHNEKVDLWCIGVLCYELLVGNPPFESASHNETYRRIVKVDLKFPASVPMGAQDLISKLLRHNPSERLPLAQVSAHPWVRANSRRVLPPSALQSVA
Protocol Description: Aurora-1 (Aurora B) inhibition assay (radiometric)
Format: biochemical
Condition Summary: read-out: Aurora B kinase Ki value
pKi: −log10 of the molar value.
Measured Metric: pKi

Some solved entries appear below for comparison.
Given Cc1cc(Nc2cc(N3CCC3)nc(Sc3ccc(NC(=O)c4cc(F)ccc4F)cc3)n2)n[nH]1 [Compound 45] , report its pKi on Aurora-1 (Aurora B) (Homo sapiens, UniProt Q96GD4). 7.30 to 8.00

Provide pKi, system Aurora-1 (Aurora B) (Homo sapiens, UniProt Q96GD4), entry CCC(=O)Nc1ccc(Sc2nc(Nc3cc(C)n[nH]3)cc(N3CC(N4CCOCC4)C3)n2)cc1 [Compound 68] 5.70 to 7.30

Jot down pKi (Aurora-1 (Aurora B) (Homo sapiens, UniProt Q96GD4)) of Cc1cc(Nc2cc(N3CCC3)nc(Sc3ccc(NC(=O)Cc4ccccc4Cl)cc3)n2)[nH]n1 [Compound 57] . ≥ 8.00

Report the value of pKi obtained on Aurora-1 (Aurora B) (Homo sapiens, UniProt Q96GD4) for COc1ccc(C(=O)Nc2ccc(Sc3nc(Nc4cc(C)n[nH]4)cc(N4CCC4)n3)cc2)cc1 [Compound 117] . 7.30 to 8.00

Enter measured pKi, system Aurora-1 (Aurora B) (Homo sapiens, UniProt Q96GD4), for the compound shown: Cc1cc(Nc2cc(N3CCC3)nc(Sc3ccc(NC(=O)c4c(F)cccc4N4CCC4)cc3)n2)n[nH]1 [Compound 8] ≥ 8.00

Go through the items and report each one's pKi.
1. Cc1cc(Nc2cc(N3CC(F)(C4CC4)C3)nc(Nc3ccc4nc(C(F)(F)F)[nH]c4c3)n2)[nH]n1 [Compound 210]
2. Cc1cc(Nc2cc(N3CC(N4CCCC4)C3)nc(Sc3ccc(NC(=O)CC(F)(F)F)cc3)n2)[nH]n1 [Compound 204]

["5.70 to 7.30", "≥ 8.00"]
